Target: T1, human serum albumin (human, UniProt P02768 25-609)
T1 construct: also called HSA
Test: SPR (Biacore 3000), HSA on chip, Fc-ABDEG fusion, pH 7.4

Binder	Unit Descriptor	R0 pH 7.4
11C03 CDR2-V2 fused at the C-terminus of Fc-ABDEG (Fc fusion, not shown: a dimerising Fc or GST; small tags and cut ends) QLQVVESGGGLVQAGGSLRLSCAASERTFVAYPMGWFRQAPEKEREFVAGASWFAGATTDYADSVEGRFTISRDNAKNTAYLQMNNLKPEDTAVYYCAISHQLPGGRPGRDMDSYSYWGHGTQVTVSS	RU	1.22
11C03 CDR2-V5 fused at the C-terminus of Fc-ABDEG (Fc fusion, not shown: a dimerising Fc or GST; small tags and cut ends) QLQVVESGGGLVQAGGSLRLSCAASERTFVAYPMGWFRQAPEKEREFVAGISWAAGATTDYADSVEGRFTISRDNAKNTAYLQMNNLKPEDTAVYYCAISHQLPGGRPGRDMDSYSYWGHGTQVTVSS	RU	1.06
11C03 CDR2-V10 fused at the C-terminus of Fc-ABDEG (Fc fusion, not shown: a dimerising Fc or GST; small tags and cut ends) QLQVVESGGGLVQAGGSLRLSCAASERTFVAYPMGWFRQAPEKEREFVAGISWFAGATADYADSVEGRFTISRDNAKNTAYLQMNNLKPEDTAVYYCAISHQLPGGRPGRDMDSYSYWGHGTQVTVSS	RU	8.6
11C03 CDR1-V3 fused at the C-terminus of Fc-ABDEG (Fc fusion, not shown: a dimerising Fc or GST; small tags and cut ends) QLQVVESGGGLVQAGGSLRLSCAASERTFVAYAMGWFRQAPEKEREFVAGISWFAGATTDYADSVEGRFTISRDNAKNTAYLQMNNLKPEDTAVYYCAISHQLPGGRPGRDMDSYSYWGHGTQVTVSS	RU	5.1
11C03 CDR2-V3 fused at the C-terminus of Fc-ABDEG (Fc fusion, not shown: a dimerising Fc or GST; small tags and cut ends) QLQVVESGGGLVQAGGSLRLSCAASERTFVAYPMGWFRQAPEKEREFVAGIAWFAGATTDYADSVEGRFTISRDNAKNTAYLQMNNLKPEDTAVYYCAISHQLPGGRPGRDMDSYSYWGHGTQVTVSS	RU	2.4
11C03 CDR1-V2 fused at the C-terminus of Fc-ABDEG (Fc fusion, not shown: a dimerising Fc or GST; small tags and cut ends) QLQVVESGGGLVQAGGSLRLSCAASERTFVAAPMGWFRQAPEKEREFVAGISWFAGATTDYADSVEGRFTISRDNAKNTAYLQMNNLKPEDTAVYYCAISHQLPGGRPGRDMDSYSYWGHGTQVTVSS	RU	5.82
11C03 CDR2-V7 fused at the C-terminus of Fc-ABDEG (Fc fusion, not shown: a dimerising Fc or GST; small tags and cut ends) QLQVVESGGGLVQAGGSLRLSCAASERTFVAYPMGWFRQAPEKEREFVAGISWFAAATTDYADSVEGRFTISRDNAKNTAYLQMNNLKPEDTAVYYCAISHQLPGGRPGRDMDSYSYWGHGTQVTVSS	RU	1.12
